- experimental_conditions: buffer; pH 7.4; 6.0 h; 150.0 µM

compound | units | modifier_sign | solubility kinetic
CCOc1ccc(CCNC(=O)c2ccc(C3(C(F)(F)F)N=N3)cc2)cc1OCC | µg/mL | < | 1
COc1cc(C(=O)NC2CCCc3c2[nH]c2ccccc32)cc(OC)c1OC (stereo unspecified) | µg/mL | = | 7.26
Cc1ccc(NC(=O)c2c(N3CCCC3=O)c3cc(C)ccc3n2C)c(C)c1 | µg/mL | < | 1
Cn1cc(Cl)c(C2N=C(Nc3nc4ccccc4o3)NC3=C2C(=O)CCC3)n1 (stereo unspecified) | µg/mL | = | 36.4
Cc1csc2nc(-c3cccc(NC(=O)c4cccc(F)c4)c3)cn12 | µg/mL | < | 1
CCOc1ccc(C(=O)Nc2ccc(S(=O)(=O)N3CCCCC3c3cccnc3)cc2)cc1 (stereo unspecified) | µg/mL | < | 1
Cc1ccccc1C(=O)Nc1ccc2c(c1)CCCN2C(=O)c1cccs1 | µg/mL | = | 7.15
CCN(CC)CCCC(C)Nc1cc(/C=C/c2ccccc2Cl)nc2cc(Cl)ccc12 (stereo unspecified) | µg/mL | = | 25.4
O=C(Nc1nc(-c2ccccc2)cs1)c1ccncc1NS(=O)(=O)c1ccc(C(F)(F)F)cc1 | µg/mL | < | 1
Cc1ccc(/C=C/c2nc3ccccc3n2S(=O)(=O)c2ccc(Br)cc2)cc1 | µg/mL | = | 0.184
CCOC(=O)Nc1ccc(NCc2ccc(F)cc2)nc1N | µg/mL | = | 8.21
COc1cccc(C(=O)NCCSc2c(-c3ccc(F)cc3)[nH]c3ccccc23)c1OC | µg/mL | < | 1
CCCCCOc1ccccc1/C(=C\SC)n1ccnc1 | µg/mL | < | 1
Cc1cc(C)nc(NC(=S)N2CCN(c3ccc(C(F)(F)F)cc3[N+](=O)[O-])CC2)c1 | µg/mL | = | 6.89
COc1ccnc(NC(=S)N2CCN(c3cccc(C(F)(F)F)c3)CC2)c1 | µg/mL | = | 13
O=C(Nc1ccc(S(=O)(=O)Nc2nccs2)cc1)c1ccncc1 | µg/mL | = | 19.5
Clc1ccc2ncc(-c3cccc(NC4CCNCC4)n3)n2c1 | µg/mL | > | 48
CC(=O)NCCNC[C@@H]1C=C(C)[C@H](Cc2nnc(-c3ccccc3)o2)C[C@H]1C(C)C | µg/mL | > | 61
Nc1ccc(S(=O)(=O)Nc2cnccc2C(=O)Nc2nc(-c3ccccc3)cs2)cc1 | µg/mL | = | 43.2
COc1ccc(NC(=O)c2c(C)cccc2C)cc1[S+](=O)([O-])N1CCCCC1 | µg/mL | = | 38.8
COc1cccc(CNc2ccc(S(=O)(=O)Nc3cccnc3)cc2)c1O | µg/mL | = | 3.93
COC(=O)c1cc(Cl)ccc1NC(=O)CSc1ncc(S(=O)(=O)c2ccc(Br)cc2)c(=O)[nH]1 | µg/mL | = | 59.1
CCOc1ccccc1CNS(=O)(=O)c1ccc(-c2cnc(C3CC3)o2)cc1 | µg/mL | < | 1
COc1cccc(Nc2nc(-c3ccncc3)nc3ccccc23)c1 | µg/mL | < | 1
NC(=O)C1CCN(c2ncc(Br)s2)CC1 | µg/mL | = | 32.3
Cc1cccc(-n2cnc3cc(C(=O)N4CCCC(C(C)C)C4)ccc32)c1 (stereo unspecified) | µg/mL | = | 5.59
O=S(=O)(c1ccccc1)c1nnn2c1nc(NCc1cccs1)c1sccc12 | µg/mL | < | 1
CCC(CC)c1cc([C@H]2CN3CC[C@H]2C[C@@H]3CNC(=O)COc2ccccc2)nc(-c2ccncc2)n1 | µg/mL | > | 74
CC(=O)Nc1nc(C)c(-c2ccc(Cl)c(S(=O)(=O)NCCO)c2)s1 | µg/mL | > | 57
Cc1ccc(OCCn2c(CCNC(=O)c3ccccc3Br)nc3ccccc32)cc1 | µg/mL | < | 1
Fc1ccc(Nc2nc(-c3ccncc3F)nc3ccccc23)cc1F | µg/mL | < | 1
CC(=O)Nc1ccc(S(=O)(=O)Nc2nccs2)cc1 | µg/mL | > | 44
COc1ccc(Cn2c(C(=O)O)c(CNCc3cccc(OC)c3)c3ccc(C)cc32)cc1 | µg/mL | = | 6.85
NC(=O)C1CCN(c2nc(-c3ccccc3N)cs2)CC1 | µg/mL | = | 29.4
CSc1cccc(NC(=O)CC[C@H]2O[C@@H]3O[C@]4(C)CC[C@H]5[C@H](C)CC[C@@H]([C@@H]2C)[C@@]35OO4)c1 | µg/mL | = | 1.2
COc1ccc(OC)c(-c2nnc3n2N=C(c2c(OC)cccc2OC)CS3)c1 | µg/mL | = | 2.63
CC[C@@]1(O)C(=O)OCc2c1cc1n(c2=O)Cc2c-1nc1cc(F)c(C)c3c1c2[C@@H](N)CC3 | µg/mL | = | 31.9
Cc1ccc(S(=O)(=O)N(C)c2ccccc2C(=O)Nc2nc(-c3ccccc3)cs2)cc1 | µg/mL | < | 1
COc1cc([C@@H](CC(=O)O)c2ccc(C)c(CN3C[C@@H](C)Oc4ccccc4S3(=O)=O)c2)cc2nnn(C)c12 | µg/mL | > | 81
N#Cc1nc(-c2cccc3ccccc23)oc1NCc1ccccc1 | µg/mL | < | 1
Cc1ccc(S(=O)(=O)Nc2cnccc2C(=O)Nc2ccc(-n3cncn3)cc2)cc1 | µg/mL | > | 64

Provenance of the data: PubChem BioAssay AID1645848
